Where do the numbers come from? From patent US6498005B1.

# tested-on: catalytic subunit of cAMP dependent protein kinase A (PKA) (Bos taurus, UniProt P00517)
# protocol-description: Homogeneous PKA kinase assay: thiophosphorylation, biotinylation, fluorescence polarization with streptavidin
# study-conditions: calculated from IC50=Ki(1+[S]/Km), ATPγS 500 μM, Km about 6 μM
# Procedure: A typical reaction mixture (50 μl) contained 20 mM HEPES pH 7.5, 10 mM MgCl2, 50 μM fluorescein labeled Kemptide (Research Genetics, Huntsville, Ala., USA), 500 μM ATPγS (Sigma, St. Louis, Mo., USA, #A-1388), and 1 μl of the catalytic subunit of cAMP dependent protein kinase A (Promega Corp., Madison, Wis., USA, #V5161). […] Substrate and product peak areas were integrated and the extent of substrate phosphorylation was determined from their ratio. […]
pKi: −log10 of the molar value.

structure-smiles-string	pKi
O=S(=O)(NCCNC/C=C/c1ccc(Br)cc1)c1cccc2cnccc12	~7.22
